- tgt: PTPRS catalytic domains (D1D2) (Homo sapiens, UniProt Q13332)
- Construct: The two interacellular catalytic domains (D1D2) of PTPRS were cloned into a pET28a vector
- Sequence (Q13332 1304-1948 limits assumed): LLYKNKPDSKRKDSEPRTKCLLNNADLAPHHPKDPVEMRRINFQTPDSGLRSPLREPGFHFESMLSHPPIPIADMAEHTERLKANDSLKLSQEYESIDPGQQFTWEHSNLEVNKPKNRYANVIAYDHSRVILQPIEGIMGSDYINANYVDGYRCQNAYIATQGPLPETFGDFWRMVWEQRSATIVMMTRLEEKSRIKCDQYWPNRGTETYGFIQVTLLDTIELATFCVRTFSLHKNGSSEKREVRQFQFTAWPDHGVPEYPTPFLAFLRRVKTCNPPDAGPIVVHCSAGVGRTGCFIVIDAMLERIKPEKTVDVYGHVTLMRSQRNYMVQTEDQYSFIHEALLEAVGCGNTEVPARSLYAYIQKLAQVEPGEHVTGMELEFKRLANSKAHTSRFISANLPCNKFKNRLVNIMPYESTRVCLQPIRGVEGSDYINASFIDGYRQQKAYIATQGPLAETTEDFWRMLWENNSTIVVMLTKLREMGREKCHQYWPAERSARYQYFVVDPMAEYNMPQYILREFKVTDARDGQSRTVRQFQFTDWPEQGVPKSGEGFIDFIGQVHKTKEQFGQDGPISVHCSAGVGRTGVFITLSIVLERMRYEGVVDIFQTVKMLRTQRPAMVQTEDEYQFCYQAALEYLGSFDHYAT
- experiment summary: In vitro phosphatase assay (modified Malachite Green Assay)
- experimental conditions: 50 nM PTPRS, 100 uM Tyr Phosphopeptide, 15 min preincubation
pIC50: −log10 of the molar value.
Listing of entries alongside the reported pIC50.
measurement label: pIC50

# compound, numeric readout
data = [
    ("CC(=O)c1cccc(N/C=C\\C(=O)c2ccccc2)c1 [DJ006]", 5.52),
    ("O=C(/C=C\\Nc1cccc(C(F)(F)F)c1)c1ccccc1 [DJ003]", 5.97),
    ("O=C(/C=C\\Nc1cccc(O)c1)c1ccccc1 [DJ015]", 5.86),
]

* * *

Listing of entries alongside the reported pIC50.
- tgt: PTPRS catalytic domains (D1D2) (Homo sapiens, UniProt Q13332)
- Construct: The two interacellular catalytic domains (D1D2) of PTPRS were cloned into a pET28a vector
- experiment summary: In vitro phosphatase assay (modified Malachite Green Assay)
- experimental conditions: 50 nM PTPRS, 100 uM Tyr Phosphopeptide, 15 min preincubation
pIC50: −log10 of the molar value.

# smiles data, pIC50
rows = [
    ("O=C(/C=C\\Nc1cc(F)cc(F)c1)c1ccccc1", 5.86),
    ("O=C(/C=C\\Nc1cccc([N+](=O)[O-])c1)c1ccccc1", 5.84),
    ("O=C(c1ccccc1)c1ccccc1Nc1cccc([N+](=O)[O-])c1", 6.04),
    ("Cc1cccc(C(=O)/C=C\\Nc2cccc(C(F)(F)F)c2)c1", 6.02),
    ("O=C(/C=C\\Nc1cc(C(F)(F)F)cc(C(F)(F)F)c1)c1ccccc1", 5.74),
]
